# testedSystem: Nicotinamide phosphoribosyltransferase (Homo sapiens, UniProt P43490)
# Sequence (P43490 whole entry): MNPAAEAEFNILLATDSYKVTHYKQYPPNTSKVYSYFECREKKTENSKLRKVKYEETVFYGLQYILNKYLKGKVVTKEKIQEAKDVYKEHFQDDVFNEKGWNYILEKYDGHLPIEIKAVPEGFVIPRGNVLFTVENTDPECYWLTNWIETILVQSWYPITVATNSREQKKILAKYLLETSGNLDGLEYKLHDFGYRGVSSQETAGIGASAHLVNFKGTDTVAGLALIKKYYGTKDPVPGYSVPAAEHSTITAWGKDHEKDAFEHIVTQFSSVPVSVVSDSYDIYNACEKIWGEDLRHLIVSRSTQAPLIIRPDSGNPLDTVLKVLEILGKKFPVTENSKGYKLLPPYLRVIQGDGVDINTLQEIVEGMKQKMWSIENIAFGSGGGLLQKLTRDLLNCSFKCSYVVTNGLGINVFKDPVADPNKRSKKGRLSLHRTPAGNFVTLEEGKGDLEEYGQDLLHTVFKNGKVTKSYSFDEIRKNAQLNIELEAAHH
# test: Inhibition of NAMPT in human SH-SY5Y cells assessed as NAD depletion incubated for 16 hrs
pIC50: −log10 of the molar value.
Overview of recorded pIC50 for various molecules
endpointLabel: pIC50

INSERT INTO assay_data (samplesmiles, testedsystem, reportedvalue) VALUES
  ('O=C(CCCCCc1cn(-c2ccccc2-c2ccccc2)nn1)NCCc1cccnc1', 'Nicotinamide phosphoribosyltransferase (Homo sapiens, UniProt P43490)', 8.12),
  ('O=C(/C=C/c1cccnc1)NCCCCCc1cn(-c2ccccc2-c2ccccc2)nn1', 'Nicotinamide phosphoribosyltransferase (Homo sapiens, UniProt P43490)', 10.29),
  ('O=C(CCCCCc1cn(-c2ccccc2-c2ccccc2)nn1)NCc1cccnc1', 'Nicotinamide phosphoribosyltransferase (Homo sapiens, UniProt P43490)', 8.96);

Numbers sourced from ChEMBL document CHEMBL3751665.
